Data provenance is ChEMBL document CHEMBL5344476.

Could you please report measured IC50 for the items listed next?
Tested on: MDA-MB-231
Experiment: Antiproliferative activity against human MDA-MB-231 cells assessed as inhibition of cell growth incubated for 72 hrs by MTS assay
Assay type: functional, cell-based
Details: MDA-MB-231, 72 h

>  <compound>
CCN1CCC(Oc2ccc(CCNC(=O)c3ccc(OC)c(-c4cccc(OC)c4)c3)c(-c3cccc(F)c3)c2)CC1

>  <tested_system>
MDA-MB-231

>  <recorded_endpoint>
IC50

>  <reported_result>
8.46 µM

$$$$

Record IC50 per entry; entries follow.
1. C=CCN1CCC(Oc2ccc(CCNC(=O)c3ccc(OC)c(-c4cccc(OC)c4)c3)c(-c3cccc(F)c3)c2)CC1
2. COc1cccc(-c2cc(C(=O)NCCc3ccc(OC4CCC(OCc5ccccc5)CC4)cc3-c3cccc(F)c3)ccc2OC)c1 (stereo unspecified)
3. COc1cccc(-c2cc(C(=O)NCCc3ccc(OC4CCOCC4)cc3-c3cccc(F)c3)ccc2OC)c1
4. COc1cccc(-c2cc(C(=O)NCCc3ccc(OC4CCC(CSc5ccccc5)CC4)cc3-c3cccc(F)c3)ccc2OC)c1 (stereo unspecified)

Ans:
1. 7.35 µM
2. > 50 µM
3. > 50 µM
4. > 50 µM

====

Could you please report measured IC50 for the items listed next?
System: PC-3
Experiment: Antiproliferative activity against human PC-3 cells assessed as inhibition of cell growth incubated for 72 hrs by MTS assay
Format: functional, cell-based
Settings: PC-3, 72 h

Examples with their reported IC50 follow.
>  <molecule>
C=CCN1CCC(Oc2ccc(CCNC(=O)c3ccc(OC)c(-c4cccc(OC)c4)c3)c(-c3cccc(F)c3)c2)CC1

>  <IC50>
12.7 µM

$$$$
>  <molecule>
COC(=O)C1CCC(Oc2ccc(CCNC(=O)c3ccc(OC)c(-c4cccc(OC)c4)c3)c(-c3cccc(F)c3)c2)CC1 (stereo unspecified)

>  <IC50>
> 50 µM

$$$$
>  <molecule>
COc1cccc(-c2cc(C(=O)NCCc3ccc(OC4CCC(COc5ccccc5)CC4)cc3-c3cccc(F)c3)ccc2OC)c1 (stereo unspecified)

>  <IC50>
> 50 µM

$$$$

Record IC50 per entry; entries follow.
1. COc1cccc(-c2cc(C(=O)NCCc3ccc(OC4CCNCC4)cc3-c3cccc(F)c3)ccc2OC)c1
2. CCCN1CCC(Oc2ccc(CCNC(=O)c3ccc(OC)c(-c4cccc(OC)c4)c3)c(-c3cccc(F)c3)c2)CC1
3. COc1cccc(-c2cc(C(=O)NCCc3ccc(OC4CCN(C)CC4)cc3-c3cccc(F)c3)ccc2OC)c1
4. COc1cccc(-c2cc(C(=O)NCCc3ccc(OC4CCC(CNc5ccccc5)CC4)cc3-c3cccc(F)c3)ccc2OC)c1 (stereo unspecified)
5. COc1cccc(-c2cc(C(=O)NCCc3ccc(OC4CCC(C(=O)Nc5ccccc5)CC4)cc3-c3cccc(F)c3)ccc2OC)c1 (stereo unspecified)
6. CCCC1CCC(Oc2ccc(CCNC(=O)c3ccc(OC)c(-c4cccc(OC)c4)c3)c(-c3cccc(F)c3)c2)CC1 (stereo unspecified)

Ans:
1: 3.08 µM; 2: 11 µM; 3: 6.6 µM; 4: > 50 µM; 5: > 50 µM; 6: > 50 µM

Record IC50 per entry; entries follow.
1. CC(C)=CCc1cc(C(=O)NCCc2ccc(OC3CCC(SCc4ccccc4)CC3)cc2-c2cccc(F)c2)ccc1O (stereo unspecified)
2. COc1cccc(-c2cc(C(=O)NCCc3ccc(OC4CCC(Cc5ccccc5)CC4)cc3-c3cccc(F)c3)ccc2OC)c1 (stereo unspecified)

Ans:
["> 50 µM", "> 50 µM"]
